src = ChEMBL document CHEMBL1125636

molecular target: Renin (Rattus norvegicus); test: Concentration required to inhibit 50% activity of plasma renin was determined at pH 7.4; Inactive; type: functional, cell-free
Sequence (P08424 whole entry): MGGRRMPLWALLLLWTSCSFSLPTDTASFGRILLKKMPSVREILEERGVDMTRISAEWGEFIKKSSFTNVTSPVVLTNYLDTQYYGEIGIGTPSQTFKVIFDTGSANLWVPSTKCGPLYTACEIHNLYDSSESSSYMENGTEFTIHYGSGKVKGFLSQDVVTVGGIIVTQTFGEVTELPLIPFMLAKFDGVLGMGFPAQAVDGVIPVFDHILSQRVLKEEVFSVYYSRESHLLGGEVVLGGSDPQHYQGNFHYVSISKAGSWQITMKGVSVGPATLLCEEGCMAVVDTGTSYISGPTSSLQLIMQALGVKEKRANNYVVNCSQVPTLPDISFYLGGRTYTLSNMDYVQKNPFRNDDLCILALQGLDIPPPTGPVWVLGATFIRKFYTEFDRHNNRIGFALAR
pIC50: −log10 of the molar value.

Smiles str | Target entity | pIC50
CC(C)C[C@H](NC(=O)[C@H](Cc1ccccc1)C[C@H](O)[C@H](Cc1ccccc1)NC(=O)OC(C)(C)C)C(=O)N[C@@H](Cc1ccccc1)C(N)=O | Renin (Rattus norvegicus) | < 5.00
